# study-target: T1, 인간 ROR1 항원 (ELISA 코팅: 실시예 1의 ROR1-Fc 또는 재조합 인간 ROR1-His) (human, UniProt Q01973 30-406)
# T1 construct: extracellular domain; tag therefore open
# T1 sequence (Q01973 30-406): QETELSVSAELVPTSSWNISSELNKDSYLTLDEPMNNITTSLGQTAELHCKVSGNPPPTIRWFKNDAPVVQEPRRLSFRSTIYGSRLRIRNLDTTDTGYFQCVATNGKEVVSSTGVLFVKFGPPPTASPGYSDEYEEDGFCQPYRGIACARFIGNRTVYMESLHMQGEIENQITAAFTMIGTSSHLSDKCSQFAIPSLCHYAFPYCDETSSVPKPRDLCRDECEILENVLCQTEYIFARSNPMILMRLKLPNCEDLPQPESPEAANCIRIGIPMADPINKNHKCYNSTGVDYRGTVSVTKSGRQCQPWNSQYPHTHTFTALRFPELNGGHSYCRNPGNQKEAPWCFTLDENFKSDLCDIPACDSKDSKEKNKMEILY
# run-description: ELISA, IgG on coated human ROR1 protein
reported-property: binding result

>  <binder>
BA6 M1 (antibody, human IgG1, lambda, V domains shown, full IgG, human IgG1 heavy and lambda light constant regions; expressed in CHO-S; also called 항-ROR1 IgG 항체 BA6 M1) VH: EVQLLESGGGLVQPGGSLRLSCAASGFTFSNYDMSWVRQAPGKGLEWVSAIYHSGSSKYYADSVKGRFTISRDNSKNTLYLQMNSLRAEDTAVYYCARGGNAAWDTGFDYWGQGTLVTVSS VL: QSVLTQPPSASGTPGQRVTISCSGSSSNIGSNDVSWYQQLPGTAPKLLIYYDNNRPSGVPDRFSGSKSGTSASLAISGLRSEDEADYYCGAWDDSLSGYVFGGGTKLTVLG

>  <reported-property>
binding result

>  <recorded-value>
binds

$$$$
>  <binder>
A2F2 (antibody, human IgG1, lambda, V domains shown, full IgG, human IgG1 heavy and lambda light constant regions; expressed in CHO-S; also called 항-ROR1 IgG 항체 A2F2) VH: EVQLLESGGGLVQPGGSLRLSCAASGFTFSDYYMSWVRQAPGKGLEWVSSISPDGSNTYYADSVKGRFTISRDNSKNTLYLQMNSLRAEDTAVYYCAKNLRAFDYWGQGTLVTVSS VL: QSVLTQPPPASGTPGQRVTISCSGSSSNIGSNTVYWYQQLPGTAPKLLIYANSQRPSGVPDRFSGSKSGTSASLAISGLRSEDEADYYCGSWDYSLSGYVFGGGTKLTVLG

>  <reported-property>
binding result

>  <recorded-value>
binds

$$$$
>  <binder>
D2B12 (antibody, human IgG1, lambda, V domains shown, full IgG, human IgG1 heavy and lambda light constant regions; expressed in CHO-S; also called 항-ROR1 IgG 항체 D2B12) VH: EVQLLESGGGLVQPGGSLRLSCAASGFTFSNYDMSWVRQAPGKGLEWVSSISPSSGSSIYYADSVKGRFTISRDNSKNTLYLQMNSLRAEDTAVYYCAKAPGWCQAPSCYYDNAMDVWGQGTLVTVSS VL: QSVLTQPPSASGTPGQRVTISCSGSSSNIGNNDVSWYQQLPGTAPKLLIYDDSQRPSGVPDRFSGSKSGTSASLAISGLRSEDEADYYCGAWDDSLSGYVFGGGTKLTVLG

>  <reported-property>
binding result

>  <recorded-value>
binds

$$$$
